// data source = patent US20250361305A1

target: PD-L1 antigen (ELISA of Example 2) (human, UniProt Q9NZQ7 19-239, limits assumed); experiment: ELISA, signal on PD-L1 antigen
Sequence (Q9NZQ7 19-239 limits assumed): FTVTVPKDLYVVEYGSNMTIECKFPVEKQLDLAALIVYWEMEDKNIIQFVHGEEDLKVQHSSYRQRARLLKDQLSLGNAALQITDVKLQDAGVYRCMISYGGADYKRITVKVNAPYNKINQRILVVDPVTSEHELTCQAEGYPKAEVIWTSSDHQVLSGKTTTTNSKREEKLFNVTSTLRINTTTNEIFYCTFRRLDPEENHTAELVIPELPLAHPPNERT
Strictly below 2 in ELISA: label 1. Otherwise: label 0.

These solved cases illustrate the format of a correct answer.
BINDER | CLASS NAME
2LIG65 (VHH, PD-L1 VHH) VHH: QVQLQESGGGLVQAGGSLRLSCAASGFNLDPYAIAWFRQAPGKEREEVSCISSSDVGTYYADSVKGRFTISRDNAKKTVYLQMNSLKPEDTAVYYCATDGYYYCSDYPHPLYWGQGTQVTVSS | label 0
2LIG189 (VHH, PD-L1 VHH) VHH: QVQLQESGGGLVQAGGSLRLSCAASGKIFSGNDMGWYRQAPGKQRELVGIITSGGITDYADAVKGRFTISRDNAKNMMYLQMNSLKPEDTAVYYCNMRDRTIWWGQGTQVTVSS | label 0
3LIG30 (VHH, PD-L1 VHH) VHH: QVQLQESGGGTVQAGGSLRLSCAASGFTFNDYAMSWVRQAPGKGLEWVSGIRSNGGYTNYADSVKGRFTISRDNAKNTLYLQMNSLKSEDTAVYYCAQGYYCSGYGCYPGQGTQVTVSS | label 0
2LIG30 (VHH, PD-L1 VHH) VHH: QVQLQESGGGLVQPGGSLRLSCAASGKIFSGNDMGWYRQAPGKQRELVGIITSGGITDYADAVKGRFTISRDNAKNMMYLQMNSLKPEDTAVYYCNMRDRTIWWGQGTQVTVSS | label 1
2LIG85 (VHH, PD-L1 VHH) VHH: QVQLQESGGGLVQPGGSLRLSCAASGFTFTAYAMSWFRQAPGKEREEVSCINSSDGSTYYADSVKGRFTISRDNAKNTVYLQMNSLKPEDTAVYHCATDGWRDCTWSNEYAYWGQGTQVTVSS | label 0
2LIG109 (VHH, PD-L1 VHH) VHH: QVQLQESGGGLVQSGGSLRLSCKTSGFTFSSYGMSWVRQTPGKGPEWVSAIDSGGGSTSYADSVKGRFTISRDNAKNTLYLQMNSLKPEDTAVYYCAQGYYCSGYGCSDYWGQGTQVTVSS | label 0
2LIG86 (VHH, PD-L1 VHH) VHH: QVQLQESGGGLVQPGGSLRLSCAASGFTFDYYAIGWFRQAPGKEREEVSCISGSDSSTYYADSVKGRFTIVRDNAQNTVYLQMNSLKPEDTAIYYCAVTGWRTCRGLNEYDYWGQGTQVTVSS | label 0
2LIG89 (VHH, PD-L1 VHH) VHH: QVQLQESGGGLVQPGGSLRLSCAASGFNLDPYAIAWFRQAPGKEREEVSCISSSDVGTYYADSVKGRFTISRDNTKKTVYLQMNSLKPEDTAVYYCATDGYYYCSDYPHPLYWGQGTQVTVSS | label 0
3LIG8 (VHH, PD-L1 VHH) VHH: QVQLQESGGGLVQPGGSLRLSCTASGTIFSINRMDWFRQAPGKQRELVALITSDGTPTYADSAKGRFTISRDNTKKTVSLQMNSLKPEDTAVYYCHVSSGVYNYWGQGTQVTVSS | label 1
2LIG176 (VHH, PD-L1 VHH) VHH: QVQLQESGGGLVQAGGSLRLSCAASESIFSIEAMGWYRQAPGKQRELVAAIFGGGFTNYADSVKGRFTISRDNANRTVYLQMNSLKPEDTAVYYCNADLVSGSSRLYDYWGQGTQVTVSS | label 1

Consider the additional binder presented here.
*Q* Does this binder meet the criterion ELISA < 2? 3LIG28 (VHH, PD-L1 VHH) VHH: QVQLQESGGGLVQPGGSLRLSCAASGFTLDYYAINWFRQAPGKEREEVSCISSSDGSTYYADSVKGRFTISRDNAKNTVYLQMNSLKPEDTAVYYCATSGWRLCRPTDEYDYLYWGQGTQVTVSS
*A* label 0
